Source listed as the NTF2 design screens of Basanta et al. (2020).

sequences and their reported protease stability score
# assay: protease stability score; higher = more stable; yeast display proteolysis, trypsin and chymotrypsin;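 also: relative to predicted unfolded state with 0 unfolded-like and 1 meaning tenfold more protease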

Record excerpt, results attached:
macromolecule-sequence	protease stability score
DELQHELERFLEEESRMLKTGDEKRLLELADPDVRVHIDGVDMVGWEALETMWRILKERLGADHVEDVKIRHVDLQGDKADMDVEFDMIQGDKKHYLRSRLIVTKINGRWLLRYVIIK	1.75
DEDDENNREMHDLSIRLFKTGDFDKIHKLMDPNAKLVIDIGDKHLHHHGREEASKRIFEIWHTLGVDHVHIKTHRHYGEKITIDMHLDINGQDTELIIVVLKINGRWLIQSVSMHFR	1.35
DETKEAFDRAIEKLSRWMFTGDEDKVDHLMDPDVRIEQGDKELHGMEDARRYLTEIRVKVRDMKITHMRIYDGRIDIDGETHLEVKVGDKHLHIDTRVYIDSYKVDGRWFFHEIRIK	0.98

[in] Need protease stability score, item DEEDNMMREIWKQLVDNQRTGDEDRLQDLIDPHVRIIINIDGRELRSHGRHELVRWLREMGVDYLDIKSYRLQGDKIETDGTLSIGDKTKEVEVRYNIIDGRTKEVEFHLR
[out] 0.167

[in] Form field: reported protease stability score of DEDERDARKITDDYLHHLTTGDWNLMDTLADPHMKMDVNGQEIHGRESMVDLMLEWRFEHTDVHDKHVRSYDGKLEIHLDVHSRVHYNGRTDDTRREITLHIHKIDGRWRLEEVRIHYL
[out] 0.695

[in] Which value of protease stability score has been reported for DEHETDKQLAIDLLIEVIQTGDEHTTRRLADPNVKVVIDGREFHGRDFLARMIHEMRFHRIHVEEVRVIDGVVHSNLRVRGEYNGKHVDTRSSIHIKKVNGRWVIESVLIE in the records?
[out] 2.04

[in] Reported protease stability score for SEHEKVYHDAIKIYQDNLKTGDEKRMEKFFDPNVIIHIGDKELVGRELVRHQATELARRVDHVEVHIKHVDVQGEKIRINGEIEIEINGRTIRFETHLVILKVNGRWIIHSEFIL : what is it?
[out] 1.04

[in] What value of protease stability score has been recorded for this entry: DEKEETIERLIRMLWHAWRTGDEDSLRNLFDPHAKLHVDGRDLVGMEMVYEDFHRQLNEWRINDLVIRTFRVQGDKIEIKGEIFGDINGRHTRHEVIIHIVVVDGRIKSLEVIND
[out] 1.66

[in] Item under review: SEEEHDWRRALKIFLESLTTGDPKSITELVDPNARSDINGVDLHGREEWSKEMNRIKNLTIHDFEIEHISIYDGKAEINGHLDFEFDGVRTKIEVHLIFEKVDGKWVIQSRIVK . Reported protease stability score?
[out] 0.895

[in] Name the recorded protease stability score for SEVAEVAREIVEIITKREYTGDEKTLDRMMDPNVRVEIGDWEIIGRDIYQKFVIELRVKDMHVRFKDVRVQGDFAFQDTELRMHGIIDGKDRETSHDTHWVFYKVDGRWLVHSIHIK .
[out] 1.3

[in] Name the recorded protease stability score for SREHKEAEDALRQWLETLRTGDERTMHELFDPNVRLHINGKEIHGREKVLTQLEHELKRFKNVRYELESIDITEHHVRVFGTSHVNGVEEKLEIVILKWDGRWRVQELYVHRV .
[out] 1.67
